- Test system: BT-549 breast
- assayMethodText: NCI tumour cell line growth inhibition, 48 h; in the data active = GI50 below about 0.43 µM; inactive = the rest
I would appreciate it if you answered using one of these outcomes: active, inactive

[[record]]
molecule = "CNC(=O)c1cc(Oc2ccc3c(c2)sc2nc(-c4ccc(N)cc4)cn23)ccn1"
assignedlabel = "inactive"


Q: # fetch the recorded call for `Clc1ccc(Cc2nc3cc4ccccc4cc3[nH]2)cc1` here
A: inactive

Q: # fetch the recorded call for `Cn1c(-c2nonc2N)nc2cnccc21` here
A: inactive

Q: # fetch the recorded call for `Cc1c(Cl)cccc1Nc1ncccc1C(=O)O` here
A: inactive

Q: # fetch the recorded call for `COC(=O)c1c2c(c(C)[n+]([O-])c1C)C(=O)C=CC2=O` here
A: inactive

Q: # fetch the recorded call for `O=C(Cc1ccc(/C=C/C(=O)c2ncc[nH]2)cc1)Nc1ccc(Cl)cc1` here
A: inactive

Q: # fetch the recorded call for `COC(=O)[C@@H](C)C[C@H](Cc1ccccc1)NC(=O)c1nc([C@@H](C[C@H](C(C)C)N(C)C(=O)[C@@H](NC(=O)[C@H]2CCCN2C)C(C)C)OC(C)=O)sc1C` here
A: active

Q: # fetch the recorded call for `COc1cc2c(c(OC)c1OC)-c1ccc(NCc3ccccc3)c(=O)cc1[C@@H](NC(C)=O)CC2` here
A: inactive

Q: # fetch the recorded call for `COc1nc2c(cc1S(=O)(=O)c1ccccc1)CCc1c-2cnn1-c1ccccc1Cl` here
A: inactive

Q: # fetch the recorded call for `CC1=C(CCCOC(=O)NCCCl)C2=C(C)C3(CC3)[C@@](C)(O)C(=O)C2=C1` here
A: inactive

The origin of these recorded values is PubChem BioAssay (NCI).
